testedOn: T1, Spy_(29-124) (UniProt P77754 52-147)
T1 construct: structured region of Spy, both disordered termini deleted; residue n is n+23 in P77754; Isotope-labelled ([15N], [13C,15N] or [2H,13C,15N]) in the NMR experiments; source: E. coli BL21 (DE3), purified (Ni-NTA, cation exchange, SEC); not shown: His6-SUMO, N-terminal, cleaved
T1 sequence (looked up): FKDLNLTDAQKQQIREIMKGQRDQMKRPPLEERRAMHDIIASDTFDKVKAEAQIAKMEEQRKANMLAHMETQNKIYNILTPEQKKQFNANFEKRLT
measurementDescription: NMR titration; 0.1 mM [15N]-Spy_(29-124) with unlabeled peptide at molar ratios 1:2 to 1:40; 2D 1H-15N HSQC; 40 mM HEPES-NaOH, 150 mM NaCl, pH 7.5, 25 °C; one-site binding model
conditionNotes: both partners purified
propertyName: Kd (mM)
Reply numerically in mM, unit not repeated.

Tell us which Kd value is on record for ADTTTAAPADAKPMMHHKGKFGPHQDMM (peptide, UniProt P77754 24-51, looked up, disordered N terminus of Spy as a free peptide; residue n is n+23 in P77754; also called peptide corresponding to Spy residues 1-28) [Nt-pep] 4.7
